# Organism: Rattus norvegicus
# Assay Comment: Selectivity index, ratio of IC50 for rat serum BuChE to IC50 for rat cortex AChE
The threshold is 60. Values of Ratio IC50 beneath it are tagged label 1; values meeting or exceeding it are tagged label 0.

// known answers, use as guide
• CCN(CCCOc1cccc(-c2cc(=O)c3c(OC)c(OC)c(OC)cc3o2)c1)Cc1ccccc1 = label 1
• CCN(CCCCOc1ccc(-c2cc(=O)c3c(O)c(OC)c(OC)cc3o2)cc1)Cc1ccccc1OC = label 0
• COc1ccccc1CN(C)CCOc1cccc(-c2cc(=O)c3c(OC)c(OC)c(OC)cc3o2)c1 = label 1
• COc1ccccc1CN(C)CCCCCCOc1cccc(-c2cc(=O)c3c(O)c(OC)c(OC)cc3o2)c1 = label 0
• COc1cc2oc(-c3cccc(OCCCN4CCN(C)CC4)c3)cc(=O)c2c(OC)c1OC = label 0
• COc1ccccc1CN(C)CCCCCCOc1cccc(-c2cc(=O)c3c(OC)c(OC)c(OC)cc3o2)c1 = label 0
• COc1cc2oc(-c3ccc(OCCCCN4CCN(C)CC4)cc3)cc(=O)c2c(OC)c1OC = label 0
• COc1cc2oc(-c3cccc(OCCCCN4CCN(Cc5ccccc5)CC4)c3)cc(=O)c2c(OC)c1OC = label 1

Now turn to the next compound.
Record CCN(CCCOc1ccc(-c2cc(=O)c3c(O)c(OC)c(OC)cc3o2)cc1)Cc1ccccc1OC : is its Ratio IC50 strictly below 60?
label 0
